- Protocol: Acute toxicity in Kunming mouse assessed as survival at 75 mg/kg, iv measured for 7 days relative to control
- Type: organism-based
- Protocol Conditions: in vivo, time 7 day
Reported Metric: survival at 168 h (%)

Smiles String	Reported Metric	Measured Value
COc1ccc(N(CCN(C)C)S(=O)(=O)c2ccc3c(c2)c2ccccc2n3C)c(OC)n1	survival at 168 h	66.7

---

- Protocol: Aqueous solubility of compound in water at pH 7.4 incubated at 20 degC by HPLC-UV analysis
- Type: physicochemical
This section presents compounds with their documented solubility values.

Smiles String	solubility
COc1ccc(N(CCOC(=O)CN2CCN(C)CC2)S(=O)(=O)c2ccc3c(c2)c2ccccc2n3C)c(OC)n1.Cl	> 30 mg/mL
COc1ccc(NS(=O)(=O)c2ccc3c(c2)c2ccccc2n3C)c(OC)n1	< 0.001 mg/mL
COc1ccc(N(CCCN2CCC(N3CCCC3)CC2)S(=O)(=O)c2ccc3c(c2)c2ccccc2n3C)c(OC)n1.Cl	> 30 mg/mL
